Assay: qHTS assay to test for compound auto fluorescence at 535 nm (green) in HEK293 cell free culture (AID 720682); further: on the % scale 0 is the no-effect control and ±100 the full control effect
Details: cell-free medium, green autofluorescence 485/535 nm, hits give high values; series mostly up to 91.3 µM
Active and inactive are the calls of the source. The call rests on the fitted dose curve; in most records, active means well fitted curve in the direction sought with a large enough effect in the repeat runs; inconclusive means weak or mixed curves; inactive means flat fitted curve, though single readings scatter.
assay.metric: activity change

> print(dat)
                                    compound     assay.metric                            result
 1  C=C(C)C1CC=C(C)C(O)C1 (centres undefined)  activity change                          inactive
 2      COc1ccc(N=[N+]([O-])c2ccc(OC)cc2)cc1  activity change                          inactive
 3  CCOC(=O)Nc1ccc2c(c1)N(C(=O)CCN1CCOCC1)c1ccccc1S2  activity change  -0.0159% [at 18.6 µM] (inactive)
 4                         C=C[Si](OC)(OC)OC  activity change                          inactive
 5  CCC(C)OC(=O)N1CCCCC1CCO (centres undefined)  activity change                          inactive
 6  O=C1C(CCS(=O)c2ccccc2)C(=O)N(c2ccccc2)N1c1ccccc1 (centres undefined)  activity change    0.112% [at 18.6 µM] (inactive)
 7               NC(N)=NS(=O)(=O)c1ccc(N)cc1  activity change   0.0753% [at 18.6 µM] (inactive)
 8              [O-][N+](=Nc1ccccc1)c1ccccc1  activity change                          inactive
 9     CCCCC1CCCCC(=O)O1 (centres undefined)  activity change                          inactive
10                            CC1=CC(=O)CCC1  activity change                          inactive
11            CCCCc1ccc2cccc(S(=O)(=O)O)c2c1  activity change                          inactive
12  CCC(C(=O)NC(N)=O)c1ccccc1 (centres undefined)  activity change                          inactive
13  CCCCCCCCCCCCCCCCCCOCC(O)CO (centres undefined)  activity change                          inactive
14      CCCOc1ccccc1-c1nc2n[nH]nc2c(=O)[nH]1  activity change                          inactive

====

Target: Cytochrome P450 2C19 (Homo sapiens)
Experiment: Cytochrome P450 Family 2 Subfamily C Member 19 (CYP2C19) small molecule antagonists: luciferase reporter qHTS assay (AID 1671197); further: nearly all actives have a fitted effect of over 65% in size
Settings: P450-Glo CYP2C19 enzyme, luciferin luminescence, 1 h; series mostly up to 115 µM
From the text: National Center for Advancing Translational Sciences [NCATS] U.S. Environmental Protection Agency [EPA] National Institutes of Environmental Health Sciences [NIEHS] National Toxicology Program [NTP] U.S. Food and Drug Administration [FDA] Cytochrome P450 (CYP) enzymes are membrane-bound hemeproteins that play a key role in metabolism of drugs and xenobiotics. […] The luciferin products formed are detected with a luciferin detection reagent, and the amount of light produced is proportional to CYP activity. […]
Inconclusive results are not listed. Calls of active or inactive are those of the source. Calls come from the whole dose curve; as a rule, active = well fitted inhibition curve with a large enough effect in the repeat runs; inconclusive = weak or mixed curves; inactive = no such curve, though single readings can be large or run the other way.
Outcome codes: active, inactive

> print(dat)
                                    compound                    system.under.test  category
 1                               CCCCCCCCC=O  Cytochrome P450 2C19 (Homo sapiens)  inactive
 2                  N#CCc1ccccc1[N+](=O)[O-]  Cytochrome P450 2C19 (Homo sapiens)  inactive
 3                              CC(C)CCCCCCN  Cytochrome P450 2C19 (Homo sapiens)  inactive
 4  O=C(O)C(O)[C@H](O)[C@@H](O)[C@H](O)[C@H](O)CO (some centres not stated)  Cytochrome P450 2C19 (Homo sapiens)    active
 5       CO[Si](CCCNCCC[Si](OC)(OC)OC)(OC)OC  Cytochrome P450 2C19 (Homo sapiens)  inactive
 6            CC(C)(C)C(=O)/C=C/c1ccc(Cl)cc1  Cytochrome P450 2C19 (Homo sapiens)    active
 7  CC(C=O)Cc1ccc(C(C)C)cc1 (configuration not stated)  Cytochrome P450 2C19 (Homo sapiens)    active
 8              [O-][N+](=Nc1ccccc1)c1ccccc1  Cytochrome P450 2C19 (Homo sapiens)    active
 9                       CC(C)CCOC(=O)CC(C)C  Cytochrome P450 2C19 (Homo sapiens)  inactive
10  CN(C)CCOC(c1ccc(Cl)cc1)c1ccccn1 (configuration not stated)  Cytochrome P450 2C19 (Homo sapiens)  inactive
11              Nc1ncnc2c1ncn2Cc1c(F)cccc1Cl  Cytochrome P450 2C19 (Homo sapiens)  inactive
12  CCCCCCCCCCC1CO1 (configuration not stated)  Cytochrome P450 2C19 (Homo sapiens)  inactive
13                     c1ccc(CCCc2ccccn2)cc1  Cytochrome P450 2C19 (Homo sapiens)    active
14                     CCCCCCOC(=O)c1ccccc1O  Cytochrome P450 2C19 (Homo sapiens)  inactive
15                            N#CC1(O)CCCCC1  Cytochrome P450 2C19 (Homo sapiens)    active
16                      C=C(C)C(=O)NCCCN(C)C  Cytochrome P450 2C19 (Homo sapiens)  inactive
17  Nc1ccn(C2CO[C@H](CO)O2)c(=O)n1 (some centres not stated)  Cytochrome P450 2C19 (Homo sapiens)  inactive

Where do these numbers come from? They come from PubChem BioAssay (Tox21).
